Attribution: ChEMBL document CHEMBL1131731

Recorded selectivity ratio for the following molecules
Target: ATP-dependent translocase ABCB1 (P-glycoprotein) (Homo sapiens)
Assay: Ratio of IC50 of cytotoxicity to the IC50 of MDR- reversal for P388/VMDRC.04 cells
Assay type: functional, cell-based
Conditions: mouse, P388/VMDRC.04 cells
ASSAY READOUT: selectivity ratio

molecule=CC(C)[C@@H]1OC(=O)[C@@H](C)COC(=O)C[C@@H](O)[C@H](Cc2ccccc2)N(C)C1=O assay_readout="selectivity ratio" operator_symbol=> recorded_result=7.5
molecule=CCCCCCC[C@H]1OC(=O)CC[C@H](Cc2ccccc2)N(C)C(=O)[C@H](C(C)C)OC(=O)[C@H]1C assay_readout="selectivity ratio" operator_symbol== recorded_result=5.6
molecule=COC(=O)C[C@@H](O)[C@H](Cc1ccccc1)N(C)C(=O)OCc1ccccc1 assay_readout="selectivity ratio" operator_symbol== recorded_result=5.2
molecule=CCCCCCC[C@H]1OC(=O)C[C@@H](OCOC)[C@H](Cc2ccccc2)N(C)C(=O)[C@H](C(C)C)OC(=O)[C@H]1C assay_readout="selectivity ratio" operator_symbol== recorded_result=5.7
molecule=CCCCCCC[C@@H](O)[C@H](C)C(=O)O[C@H](C(=O)OC)C(C)C assay_readout="selectivity ratio" operator_symbol=> recorded_result=5.2
molecule="CCCCCCC[C@H]1OC(=O)C[C@@H](O)[C@H](Cc2ccccc2)N(C)C(=O)[C@H](C(C)C)OC(=O)[C@H]1C [HAPALOSIN]" assay_readout="selectivity ratio" operator_symbol== recorded_result=3
molecule=CCCCCCC[C@H]1OC(=O)C[C@@H](OCOC)[C@H](Cc2ccccc2)N(C)C(=O)[C@H](C)OC(=O)[C@H]1C assay_readout="selectivity ratio" operator_symbol== recorded_result=3.2
molecule=CCCCCCC[C@H]1OC(=O)C[C@@H](O)[C@H](Cc2ccccc2)N(C)C(=O)[C@H](C)OC(=O)[C@H]1C assay_readout="selectivity ratio" operator_symbol== recorded_result=4.3

###

Recorded IC50 for the following compounds
Assay: Evaluated for cytotoxicity using P388/VMDRC.04 cells (a subline of P388 murine leukemia cells expressing human recombinant human P-glycoprotein) in the absence of 10 nM vincristine
ASSAY READOUT: IC50

chemical_string=CCCC[C@H]1OC(=O)C[C@H](OCOC)[C@H](Cc2ccccc2)N(C)C(=O)COC(=O)[C@H]1C assay_readout=IC50 recorded_result="> 100 µM"
chemical_string=CC(C)[C@@H]1OC(=O)[C@@H](C)COC(=O)C[C@@H](O)[C@H](Cc2ccccc2)N(C)C1=O assay_readout=IC50 recorded_result="> 100 µM"
chemical_string=CCCCCCC[C@@H](O)[C@H](C)C(=O)OC assay_readout=IC50 recorded_result="> 100 µM"
chemical_string=CCCCCCC[C@H]1OC(=O)C[C@@H](OCOC)[C@H](Cc2ccccc2)N(C)C(=O)[C@H](C(C)C)OC(=O)[C@H]1C assay_readout=IC50 recorded_result="34.9 µM"

###

Target: ATP-dependent translocase ABCB1 (P-glycoprotein) (Homo sapiens)
Experiment: Ratio of IC50 of cytotoxicity to the IC50 of MDR- reversal for P388/VMDRC.04 cells
Type: functional, cell-based
Details: mouse, P388/VMDRC.04 cells
Record T whenever selectivity ratio is at 6 or higher; record F when lower.

compound=CCCCCCC[C@@H]1CC(=O)O[C@@H](C(C)C)C(=O)N(C)[C@@H](Cc2ccccc2)[C@H](O)CC(=O)O1 target_or_system="ATP-dependent translocase ABCB1 (P-glycoprotein) (Homo sapiens)" cat=F
compound="CCCCCCC[C@H]1OC(=O)C[C@H](OCOC)[C@H](Cc2ccccc2)N(C)C(=O)[C@H](C(C)C)OC(=O)[C@H]1C (stereo in doubt; 14)" target_or_system="ATP-dependent translocase ABCB1 (P-glycoprotein) (Homo sapiens)" cat=T
compound=CCCCCCC[C@H]1OC(=O)C[C@H](O)[C@H](Cc2ccccc2)N(C)C(=O)C(C)(C)OC(=O)[C@H]1C target_or_system="ATP-dependent translocase ABCB1 (P-glycoprotein) (Homo sapiens)" cat=T
compound=CCCCCCC[C@H]1OC(=O)C[C@H](OCOC)[C@H](Cc2ccccc2)N(C)C(=O)C(C)(C)OC(=O)[C@H]1C target_or_system="ATP-dependent translocase ABCB1 (P-glycoprotein) (Homo sapiens)" cat=F
compound=CCCC[C@H]1OC(=O)C[C@H](OCOC)[C@H](Cc2ccccc2)N(C)C(=O)COC(=O)[C@H]1C target_or_system="ATP-dependent translocase ABCB1 (P-glycoprotein) (Homo sapiens)" cat=T
compound=COCO[C@@H]1CC(=O)O[C@H](C)[C@H](C)C(=O)O[C@@H](C(C)C)C(=O)N(C)[C@H]1Cc1ccccc1 target_or_system="ATP-dependent translocase ABCB1 (P-glycoprotein) (Homo sapiens)" cat=T
compound=CCCCCCC[C@H]1OC(=O)C[C@@H](OCOC)[C@H](Cc2ccccc2)N(C)C(=O)COC(=O)[C@H]1C target_or_system="ATP-dependent translocase ABCB1 (P-glycoprotein) (Homo sapiens)" cat=T
compound=CCCCCCC[C@H]1OC(=O)C[C@@H](O)[C@H](Cc2ccccc2)N(C)C(=O)COC(=O)[C@H]1C target_or_system="ATP-dependent translocase ABCB1 (P-glycoprotein) (Homo sapiens)" cat=F
compound=CCCCCCC[C@@H]1CC(=O)O[C@@H](C(C)C)C(=O)N(C)[C@@H](Cc2ccccc2)[C@H](OCOC)CC(=O)O1 target_or_system="ATP-dependent translocase ABCB1 (P-glycoprotein) (Homo sapiens)" cat=F
compound=COCO[C@@H]1CC(=O)OC[C@H](C)C(=O)O[C@@H](C(C)C)C(=O)N(C)[C@H]1Cc1ccccc1 target_or_system="ATP-dependent translocase ABCB1 (P-glycoprotein) (Homo sapiens)" cat=T
compound=COCO[C@H](CC(=O)OC)[C@H](Cc1ccccc1)N(C)C(=O)OCc1ccccc1 target_or_system="ATP-dependent translocase ABCB1 (P-glycoprotein) (Homo sapiens)" cat=F
compound=CC(C)[C@@H]1OC(=O)[C@@H](C)[C@@H](C)OC(=O)C[C@@H](O)[C@H](Cc2ccccc2)N(C)C1=O target_or_system="ATP-dependent translocase ABCB1 (P-glycoprotein) (Homo sapiens)" cat=T

###

Target: ATP-dependent translocase ABCB1 (P-glycoprotein) (Homo sapiens, UniProt P08183)
Sequence (P08183 whole entry): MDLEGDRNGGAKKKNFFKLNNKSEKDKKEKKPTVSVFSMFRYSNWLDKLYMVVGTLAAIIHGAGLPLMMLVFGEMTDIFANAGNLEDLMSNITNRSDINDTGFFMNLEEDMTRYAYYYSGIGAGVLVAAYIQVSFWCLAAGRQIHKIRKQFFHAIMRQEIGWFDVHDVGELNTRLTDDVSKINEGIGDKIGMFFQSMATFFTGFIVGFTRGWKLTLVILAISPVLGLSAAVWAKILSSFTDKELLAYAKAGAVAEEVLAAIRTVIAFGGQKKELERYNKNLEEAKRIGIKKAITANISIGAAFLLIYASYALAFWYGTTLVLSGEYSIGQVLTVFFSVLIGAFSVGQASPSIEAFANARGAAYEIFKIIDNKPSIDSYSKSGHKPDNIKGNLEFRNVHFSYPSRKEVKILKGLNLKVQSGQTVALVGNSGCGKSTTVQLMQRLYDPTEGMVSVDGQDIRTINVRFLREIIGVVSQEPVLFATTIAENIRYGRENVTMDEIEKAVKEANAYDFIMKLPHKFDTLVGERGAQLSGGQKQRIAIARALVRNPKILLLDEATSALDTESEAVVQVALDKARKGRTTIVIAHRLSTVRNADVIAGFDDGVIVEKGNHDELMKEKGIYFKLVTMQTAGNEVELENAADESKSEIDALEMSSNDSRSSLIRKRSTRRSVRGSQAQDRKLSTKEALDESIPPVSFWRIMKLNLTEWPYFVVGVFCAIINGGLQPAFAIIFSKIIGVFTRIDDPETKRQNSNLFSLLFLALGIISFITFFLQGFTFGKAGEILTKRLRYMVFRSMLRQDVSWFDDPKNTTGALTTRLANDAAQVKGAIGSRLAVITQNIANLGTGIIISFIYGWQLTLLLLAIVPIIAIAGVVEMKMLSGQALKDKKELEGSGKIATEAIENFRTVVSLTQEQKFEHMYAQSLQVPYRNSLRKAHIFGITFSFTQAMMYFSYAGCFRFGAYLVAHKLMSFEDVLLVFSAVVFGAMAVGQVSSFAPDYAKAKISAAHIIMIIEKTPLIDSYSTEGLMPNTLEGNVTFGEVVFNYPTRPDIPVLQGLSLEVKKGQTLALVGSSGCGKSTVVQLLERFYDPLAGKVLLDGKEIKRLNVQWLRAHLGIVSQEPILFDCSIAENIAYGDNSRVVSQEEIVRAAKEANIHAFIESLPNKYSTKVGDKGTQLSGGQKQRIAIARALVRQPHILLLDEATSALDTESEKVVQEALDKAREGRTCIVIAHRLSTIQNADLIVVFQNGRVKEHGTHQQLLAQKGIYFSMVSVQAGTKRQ
Assay: Ratio of IC50 of cytotoxicity to the IC50 of MDR- reversal for P388/VMDRC.04 cells
Type: functional, cell-based
Settings: mouse, P388/VMDRC.04 cells
Recorded selectivity ratio for the following molecules
ASSAY READOUT: selectivity ratio

chemical_string=COCO[C@H]1CC(=O)O[C@H](C)[C@H](C)C(=O)OCC(=O)N(C)[C@H]1Cc1ccccc1 assay_readout="selectivity ratio" operator_symbol=> recorded_result=2.3
chemical_string=CCCC[C@H]1OC(=O)C[C@H](O)[C@H](Cc2ccccc2)N(C)C(=O)COC(=O)[C@H]1C assay_readout="selectivity ratio" operator_symbol=> recorded_result=4.4
